- Test system: contact sensitivity response to 2,4-dinitrofluorobenzene (DNFB)
- assay: Contact sensitivity response to 2,4-dinitrofluorobenzene (DNFB) in mice
- Type: in vivo, Balb/c female mice
- condition context: Table 3, 20.0 mg/kg oral
- Experimental: This is an antigen-specific T-cell mediated inflammatory response that represents delayed-type hypersensitivity reactions seen in both humans and other mammals. Balb/c female mice (.perspectiveto.20g, Charles River) were sensitized on the shaved abdomen with 25 μl of 0.5% 2,4-dinitrofluorobenzene ([…], Eastman Kodak Co.) in a vehicle of 4:1 acetone:olive oil on days 0 and 1. […] A constant area of the ears was measured immediately before challenge and 24 hours later with an engineer's micrometer. […]
Ear Swelling (units ± SEM), increase in ear thickness from day 5 to day 6 values by entry
outcome measure: Ear Swelling (units ± SEM), increase in ear thickness from day 5 to day 6

compound: Cc1c(-c2ccc(Sc3ccccc3)cc2)nc2ccc(Cl)cc2c1C(=O)O [Example 8]
result: 63.25 ± 3.58 10^-4 inches

compound: Cc1c(-c2ccc(-c3ccc(Br)cc3)cc2)nc2ccc(F)cc2c1C(=O)O
result: 11.80 ± 1.03 10^-4 inches

compound: CN(Cc1cnc2nc(N)nc(N)c2n1)c1ccc(C(=O)N[C@@H](CCC(=O)O)C(=O)O)cc1 [Methotrexate, reference compound]
result: 16.94 ± 2.10 10^-4 inches

compound: Cc1c(-c2ccc(Oc3ccccc3)cc2)nc2ccc(F)cc2c1C(=O)O
result: 14.25 ± 1.49 10^-4 inches

---

- System: human mixed lymphocyte reaction
- assay: Human mixed lymphocyte reaction (3H-thymidine incorporation)
- Assay type: cell-based
- condition context: Table 4, human PBMC of two donors, 6 days
pIC50: −log10 of the molar value.
outcome measure: pIC50

compound: COc1ccc2c(c1)c(CC(=O)O)c(C)n2C(=O)c1ccc(Cl)cc1 [Indomethacin, reference compound]
outcome measure: pIC50
cmp: <
number: 6.00
--
compound: Cc1c(-c2ccc(-c3ccccc3)cc2)nc2cccc(Cl)c2c1C(=O)[O-].[Na+]
outcome measure: pIC50
cmp: =
number: 8.02
--
compound: CN(Cc1cnc2nc(N)nc(N)c2n1)c1ccc(C(=O)N[C@@H](CCC(=O)O)C(=O)O)cc1 [Methotrexate, reference compound]
outcome measure: pIC50
cmp: =
number: 8.60
--
compound: Cc1c(-c2ccc(-c3ccccc3F)cc2)nc2ccc(F)cc2c1C(=O)[O-].[Na+]
outcome measure: pIC50
cmp: =
number: 7.60
